All values here come from patent US20240376151A1.

system.tested: CDK2 (Homo sapiens)
assay.method.text: Phage Library Screening with NGS, CDK2
Assay type: binding
Set-up: Full length CDK2 (residues 1-298) with an N-terminal GST-3C-6×his-TEV tag; GST-3C-6×his-TEV (N, cleaved yes); made in house; host or cells: Sf9 (Bac-to-Bac baculovirus)
experimental.conditions: CDK2, target concentration 300
Numbered stars: 1 amine (or outer) side, 2 acyl side, 3 side chain; on linkers, the order of the positions; unused ones are H or OH. Bridge positions count the residues as written; N and C are the ends. Ends that are not written are not given here. Phenylene(1,4-NHCOCH2)2 = O=C(C[*:1])Nc1ccc(NC(=O)C[*:2])cc1
Please go through the items and note down their phage screen counts, Target Concentration 300.
// no unit, no text: just the number

Prompt: Look up phage screen counts, Target Concentration 300 for this sequence: PACVSAFFACL (linker 3-10 via Phenylene(1,4-NHCOCH2)2 (inferred))
Response: 0

Prompt: Could you tell me which phage screen counts, Target Concentration 300 is on file for PMACLSAFFTC (linker 4-11 via Phenylene(1,4-NHCOCH2)2 (inferred)) ?
Response: 16

Prompt: Would you kindly share the measured phage screen counts, Target Concentration 300 for CLSAFFMCSS (linker 1-8 via Phenylene(1,4-NHCOCH2)2 (inferred); not fully specified (C-terminus)) ?
Response: 0

Prompt: I have this sequence here, DPAWYECVVAAIECHAY (linker 7-14 via Phenylene(1,4-NHCOCH2)2 (inferred)) , and I need its recorded phage screen counts, Target Concentration 300.
Response: 286

Prompt: Looking for the measured phage screen counts, Target Concentration 300 of PECLEAFFDCR (linker 3-10 via Phenylene(1,4-NHCOCH2)2 (inferred)) , can you help?
Response: 84

Prompt: Can you share its phage screen counts, Target Concentration 300? I mean this sequence: DPAWWRCSIAAMECHHD (linker 7-14 via Phenylene(1,4-NHCOCH2)2 (inferred))
Response: 39

Prompt: Recorded phage screen counts, Target Concentration 300 of DPAWWVCSIAAIECESS , please.
Response: 85

Prompt: Given the sequence DPAWWECIVAALECSDR (linker 7-14 via Phenylene(1,4-NHCOCH2)2 (inferred)) , what is its reported phage screen counts, Target Concentration 300?
Response: 62

Prompt: Which phage screen counts, Target Concentration 300 value belongs to PCLEAFFSCVY (linker 2-9 via Phenylene(1,4-NHCOCH2)2 (inferred)) ?
Response: 61

Prompt: What does the data say about its phage screen counts, Target Concentration 300? Entry: FECLDAFFSC (linker 3-10 via Phenylene(1,4-NHCOCH2)2 (inferred); not fully specified (N-terminus, C-terminus))
Response: 49

Prompt: Which phage screen counts, Target Concentration 300 value belongs to DPAWWRCSVAAIDCHWN (linker 7-14 via Phenylene(1,4-NHCOCH2)2 (inferred)) ?
Response: 93

Prompt: Looking for the measured phage screen counts, Target Concentration 300 of PECLVAFFSCV (linker 3-10 via Phenylene(1,4-NHCOCH2)2 (inferred)) , can you help?
Response: 9
